Tested on: ryegrass, Italian (Italian ryegrass, Lolium multiflorum)
EXPERIMENTAL_PROTOCOL: Test A preemergence
Assay type: in vivo
CONDITION_CONTEXT: Lolium multiflorum, pre-emergence, 240 h, 500 g ai/ha, preemergence; visual injury rating about 10 d after treatment, 0 to 100 scale (0 no effect, 100 complete control); read-out: Ryegrass, Italian plant response rating
Lab note: anything with pest or weed control at 500 g/ha at or over 60% counts as yes; the rest go in no.

{"TEST_SMILES": "Cc1ccc([C@H]2CNC(=O)[C@@H]2C(=O)Nc2ccccc2F)cc1C", "ANSWER_LABEL": "no"}
{"TEST_SMILES": "CC(C)COc1cccc([C@H]2CN(C)C(=O)[C@@H]2C(=O)Nc2ccc(F)cc2F)c1", "ANSWER_LABEL": "yes"}
{"TEST_SMILES": "CSc1ccccc1NC(=O)[C@H]1C(=O)NC[C@@H]1c1ccc(C)c(C)c1", "ANSWER_LABEL": "no"}
{"TEST_SMILES": "Cc1c(F)cccc1NC(=O)[C@H]1C(=O)N(C)C[C@@H]1c1cc(F)cc(Cl)c1", "ANSWER_LABEL": "yes"}
{"TEST_SMILES": "Cc1cc([C@H]2CN(C)C(=O)[C@@H]2C(=O)Nc2cccc(F)c2F)ccc1Br", "ANSWER_LABEL": "yes"}
{"TEST_SMILES": "CC(=O)Oc1ccc(F)c(NC(=O)[C@H]2C(=O)N(C)C[C@@H]2c2cc(F)cc(F)c2)c1", "ANSWER_LABEL": "no"}
{"TEST_SMILES": "COc1ccc([C@H]2CN(C)C(=O)[C@@H]2C(=O)Nc2ccccc2F)cc1C(F)(F)F", "ANSWER_LABEL": "no"}

---

Each entry below carries its recorded pest or weed control at 15.625 g/ha.
Test system: barnyardgrass (Echinochloa crus-galli)
EXPERIMENTAL_PROTOCOL: Test G Post-Emergence Protocol
Type: in vivo
CONDITION_CONTEXT: Echinochloa crus-galli, post-emergence, 312 h, 15.625 g ai/ha, evaluated after 13 days (100=total damage to plant; 0=no damage to plant), read-out: Barnyardgrass damage rating

{"MOLECULE": "CN1C[C@H](c2ccc(F)c(F)c2)[C@@H](C(=O)Nc2cnccc2C(F)(F)F)C1=O (racemic)", "READING_UNIT": "%", "pest or weed control at 15.625 g/ha": 0}
{"MOLECULE": "Cc1cc(C)cc([C@H]2CN(C)C(=O)[C@@H]2C(=O)Nc2ccccc2S(C)(=O)=O)c1 (racemic)", "READING_UNIT": "%", "pest or weed control at 15.625 g/ha": 20}
{"MOLECULE": "CN1C[C@@H](c2ccc(C(F)(F)F)cc2)[C@H](C(=O)Nc2ccc(F)c(F)c2Cl)C1=O (racemic)", "READING_UNIT": "%", "pest or weed control at 15.625 g/ha": 20}
{"MOLECULE": "CN1C[C@@H](c2ccc(C(F)(F)F)cc2)[C@H](C(=O)Nc2ccncc2Cl)C1=O (racemic)", "READING_UNIT": "%", "pest or weed control at 15.625 g/ha": 0}
{"MOLECULE": "Cc1c[nH]nc1NC(=O)[C@@H]1C(=O)N(C)C[C@H]1c1ccc(C(F)(F)F)cc1 (racemic)", "READING_UNIT": "%", "pest or weed control at 15.625 g/ha": 0}
{"MOLECULE": "Cc1c(F)cccc1NC(=O)[C@@H]1C(=O)N(C)C[C@H]1c1cccc(OCC2CC2)c1 (racemic)", "READING_UNIT": "%", "pest or weed control at 15.625 g/ha": 60}
{"MOLECULE": "CN1C[C@@H](c2ccc(C(F)(F)F)cc2)[C@H](C(=O)Nc2cc(F)nc(F)c2)C1=O (racemic)", "READING_UNIT": "%", "pest or weed control at 15.625 g/ha": 0}
{"MOLECULE": "CCS(=O)(=O)c1ccccc1NC(=O)[C@H]1C(=O)N(C)C[C@@H]1c1ccc(C(F)(F)F)cc1 (racemic)", "READING_UNIT": "%", "pest or weed control at 15.625 g/ha": 0}
{"MOLECULE": "CN1C[C@H](c2ccc(C(F)(F)F)cc2)[C@@H](C(=O)Nc2ccc(C(F)(F)F)c(F)c2F)C1=O (racemic)", "READING_UNIT": "%", "pest or weed control at 15.625 g/ha": 0}
{"MOLECULE": "Cc1ncc(NC(=O)[C@@H]2C(=O)N(C)C[C@H]2c2ccc(C(F)(F)F)cc2)s1 (racemic)", "READING_UNIT": "%", "pest or weed control at 15.625 g/ha": 10}
{"MOLECULE": "COc1nccc(NC(=O)[C@@H]2C(=O)N(C)C[C@H]2c2ccc(C(F)(F)F)cc2)n1 (racemic)", "READING_UNIT": "%", "pest or weed control at 15.625 g/ha": 0}
{"MOLECULE": "CN1C[C@@H](c2ccc(C(F)(F)F)cc2)[C@H](C(=O)Nc2nnc[nH]2)C1=O (racemic)", "READING_UNIT": "%", "pest or weed control at 15.625 g/ha": 0}
{"MOLECULE": "CN1C[C@H](c2ccc(C(F)(F)F)cc2)[C@@H](C(=O)Nc2ncccc2[N+](=O)[O-])C1=O (racemic)", "READING_UNIT": "%", "pest or weed control at 15.625 g/ha": 0}
{"MOLECULE": "Cc1cc([C@H]2CN(C)C(=O)[C@@H]2C(=O)Nc2cccc(F)c2F)cnn1 (racemic)", "READING_UNIT": "%", "pest or weed control at 15.625 g/ha": 0}

---

Tested on: corn (Zea mays)
EXPERIMENTAL_PROTOCOL: Test G Post-Emergence Protocol
Assay type: in vivo
CONDITION_CONTEXT: Zea mays, post-emergence, 312 h, 15.625 g ai/ha, evaluated after 13 days (100=total damage to plant; 0=no damage to plant), read-out: Corn damage rating

{"COMPOUND": "CCOC(=O)c1cccc([C@H]2CN(C)C(=O)[C@@H]2C(=O)Nc2ccccc2F)c1 (racemic)", "READING_UNIT": "%", "plant injury at 15.625 g/ha": 0}
{"COMPOUND": "COCCOc1cccc([C@@H]2CN(C)C(=O)[C@H]2C(=O)Nc2cccc(F)c2C)c1 (racemic)", "READING_UNIT": "%", "plant injury at 15.625 g/ha": 0}
{"COMPOUND": "CN1C[C@@H](c2ccc(C(F)(F)F)cc2)[C@H](C(=O)Nc2cc(F)ncn2)C1=O (racemic)", "READING_UNIT": "%", "plant injury at 15.625 g/ha": 0}
{"COMPOUND": "Cc1c(F)cccc1NC(=O)[C@@H]1C(=O)N(C)C[C@H]1c1cc(Cl)c(F)c(Cl)c1 (racemic)", "READING_UNIT": "%", "plant injury at 15.625 g/ha": 20}

---

Test system: giant foxtail (Setaria faberi)
EXPERIMENTAL_PROTOCOL: Test G Pre-Emergence Protocol
Type: in vivo
CONDITION_CONTEXT: Setaria faberi, pre-emergence, 312 h, 15.625 g ai/ha, evaluated after 13 days, read-out: Foxtail, Giant damage rating (100=total damage to plant; 0=no damage to plant)

{"MOLECULE": "CN1C[C@H](c2ccc(C(F)(F)F)cc2)[C@@H](C(=O)Nc2ncc(Cl)cc2Cl)C1=O (racemic) [Compound 1435]", "pest or weed control at 15.625 g/ha (%)": 0}
{"MOLECULE": "CN1CC(C2CCN=C(C(C)(C)C)N2)C(C(=O)Nc2ccc(F)c(F)c2F)C1=O (stereo not drawn) [Compound 1771]", "pest or weed control at 15.625 g/ha (%)": 0}
{"MOLECULE": "COc1cc(Cl)cc(C2CN(C)C(=O)C2C(=O)Nc2cccc(F)c2F)c1 (stereo not drawn) [Compound 1690]", "pest or weed control at 15.625 g/ha (%)": 70}
{"MOLECULE": "Cc1cc([C@@H]2CN(C)C(=O)[C@H]2C(=O)Nc2cccc(F)c2F)cnc1Cl (racemic) [Compound 1493]", "pest or weed control at 15.625 g/ha (%)": 60}
{"MOLECULE": "CN1C[C@H](c2ccc(C(F)(F)F)cc2)[C@@H](C(=O)Nc2nccc(C(F)(F)F)c2F)C1=O (racemic) [Compound 1436]", "pest or weed control at 15.625 g/ha (%)": 0}
{"MOLECULE": "CN1C[C@H](c2ccc3ccccc3c2)[C@@H](C(=O)Nc2cccc(F)c2F)C1=O (racemic) [Compound 1501]", "pest or weed control at 15.625 g/ha (%)": 0}
{"MOLECULE": "Cc1ccc([C@H]2CN(C)C(=O)[C@@H]2C(=O)Nc2ccccc2F)cc1Cl (racemic) [Compound 1420]", "pest or weed control at 15.625 g/ha (%)": 70}
{"MOLECULE": "CON1C[C@@H](c2cccc(C(F)(F)F)c2)[C@H](C(=O)Nc2cccc(F)c2F)C1=O (racemic) [Compound 1763]", "pest or weed control at 15.625 g/ha (%)": 80}
{"MOLECULE": "CN1C[C@H](c2ccc(C(F)(F)F)cc2)[C@@H](C(=O)Nc2cccnc2[N+](=O)[O-])C1=O (racemic) [Compound 1824]", "pest or weed control at 15.625 g/ha (%)": 0}
{"MOLECULE": "COc1c(C)cc(C2CN(C)C(=O)C2C(=O)Nc2cccc(F)c2F)cc1C (stereo not drawn) [Compound 1707]", "pest or weed control at 15.625 g/ha (%)": 80}
{"MOLECULE": "CN1C[C@H](c2ccc(C(F)(F)F)cc2)[C@@H](C(=O)Nc2cccc(C(F)F)c2)C1=O (racemic) [Compound 1498]", "pest or weed control at 15.625 g/ha (%)": 0}
{"MOLECULE": "CN1C[C@H](c2ccc(C#N)c(C(F)(F)F)c2)[C@@H](C(=O)Nc2ccccc2S(C)(=O)=O)C1=O (racemic) [Compound 1796]", "pest or weed control at 15.625 g/ha (%)": 0}
{"MOLECULE": "Cc1nc(C(F)(F)F)ccc1NC(=O)[C@@H]1C(=O)N(C)C[C@H]1c1ccc(C(F)(F)F)cc1 (racemic) [Compound 1566]", "pest or weed control at 15.625 g/ha (%)": 0}
{"MOLECULE": "CN1C[C@H](c2ccc(C(F)(F)F)cc2)[C@@H](C(=O)Nc2ccc(Cl)cc2[N+](=O)[O-])C1=O (racemic) [Compound 1432]", "pest or weed control at 15.625 g/ha (%)": 0}
{"MOLECULE": "Cc1cccc(NC(=O)[C@@H]2C(=O)N(C)C[C@H]2c2ccc(C(F)(F)F)cc2)c1[N+](=O)[O-] (racemic) [Compound 1636]", "pest or weed control at 15.625 g/ha (%)": 0}
{"MOLECULE": "CN1C[C@@H](c2ccc(C(F)(F)F)cc2)[C@H](C(=O)Nc2ccncc2Cl)C1=O (racemic) [Compound 1608]", "pest or weed control at 15.625 g/ha (%)": 0}
{"MOLECULE": "CCOc1cc([C@@H]2CN(C)C(=O)[C@H]2C(=O)Nc2cccc(F)c2F)cc(C(F)(F)F)n1 (racemic) [Compound 1753]", "pest or weed control at 15.625 g/ha (%)": 70}
{"MOLECULE": "CN1C[C@@H](c2ccc(C(F)(F)F)cc2)[C@H](C(=O)Nc2n[nH]cc2Cl)C1=O (racemic) [Compound 1658]", "pest or weed control at 15.625 g/ha (%)": 0}
{"MOLECULE": "CN1C[C@@H](c2ccc(C(F)(F)F)cc2)[C@H](C(=O)Nc2cc(F)nc(F)c2)C1=O (racemic) [Compound 1515]", "pest or weed control at 15.625 g/ha (%)": 0}
{"MOLECULE": "CN1C[C@H](c2cccc(C(F)(F)F)c2)[C@@H](C(=O)Nc2cnccc2[S+](C)[O-])C1=O (mixture of isomers) [Compound 1752]", "pest or weed control at 15.625 g/ha (%)": 0}
{"MOLECULE": "CN1C[C@@H](c2ccc(C(F)(F)F)cc2)[C@H](C(=O)Nc2cccc(Cl)c2C#N)C1=O (racemic) [Compound 1645]", "pest or weed control at 15.625 g/ha (%)": 0}
{"MOLECULE": "CN1C[C@@H](c2ccc(C(F)(F)F)cc2)[C@H](C(=O)Nc2csc(C(F)(F)F)n2)C1=O (racemic) [Compound 1587]", "pest or weed control at 15.625 g/ha (%)": 0}
{"MOLECULE": "CCc1nc(NC(=O)[C@@H]2C(=O)N(C)C[C@H]2c2ccc(C(F)(F)F)cc2)n[nH]1 (racemic) [Compound 1610]", "pest or weed control at 15.625 g/ha (%)": 0}
{"MOLECULE": "Cc1ccc([C@H]2CN(C)C(=O)[C@@H]2C(=O)Nc2ccc(F)nc2F)cc1 [Compound 1402]", "pest or weed control at 15.625 g/ha (%)": 90}
{"MOLECULE": "CCOc1ccc(C2CN(C)C(=O)C2C(=O)Nc2cccc(F)c2F)cc1F (stereo not drawn) [Compound 1717]", "pest or weed control at 15.625 g/ha (%)": 60}
{"MOLECULE": "Cc1c(NC(=O)[C@H]2C(=O)N(C)C[C@@H]2c2ccc(C(F)(F)F)cc2)cccc1[N+](=O)[O-] (racemic) [Compound 1423]", "pest or weed control at 15.625 g/ha (%)": 10}
{"MOLECULE": "Cc1ccc(C2CN(C)C(=O)C2C(=O)Nc2cccc(F)c2F)cc1C#N (stereo not drawn) [Compound 1687]", "pest or weed control at 15.625 g/ha (%)": 60}
{"MOLECULE": "CN1C[C@@H](c2ccc(C(F)(F)F)cc2)[C@H](C(=O)Nc2cc(C(F)(F)F)n(C)n2)C1=O (racemic) [Compound 1512]", "pest or weed control at 15.625 g/ha (%)": 0}
{"MOLECULE": "CN1C[C@H](c2ccc(F)c(F)c2)[C@@H](C(=O)Nc2cnccc2C(F)(F)F)C1=O (racemic) [Compound 1740]", "pest or weed control at 15.625 g/ha (%)": 0}
{"MOLECULE": "CN1C[C@H](c2ccc3c(c2)OCCO3)[C@@H](C(=O)Nc2cccc(F)c2F)C1=O (racemic) [Compound 1490]", "pest or weed control at 15.625 g/ha (%)": 0}
